- ASSAY OVERVIEW: Pharmacokinetic Test in Rats (Inhalation Administration)
- ASSAY SETUP: rat, in vivo, inhaled or intranasal, male SD rats, single dose 0.03 mg/kg, lung tissue
READOUT KIND: Cmax (ng/mL)
Respond with the bare value in ng/mL.

CC(C)(Cc1csc(C2(C)C(=O)Nc3nc(-n4nc(Cc5ccccc5F)c5ncc(F)cc54)nc(N)c32)n1)C(=O)O (single isomer, unassigned); 2540

Fill blank: measured Cmax of the compound CC(C)(Cc1csc([C@]2(C)C(=O)Nc3nc(-n4nc(CCC(F)(F)C(F)(F)F)c5cc(F)ccc54)nc(N)c32)n1)C(=O)O is ____. 1750

Endpoint output: Cmax of CC(C)(Cc1csc([C@]2(C)C(=O)Nc3nc(-c4nc(Cc5ccccc5F)n5ncccc45)nc(N)c32)n1)C(=O)O . Value? 2840

Which Cmax reading was recorded for the compound CC(C)(Cc1csc([C@]2(C)C(=O)Nc3nc(-n4c(=O)n(Cc5ccccc5F)c5cc(F)ccc54)nc(N)c32)n1)C(=O)O ? 1740

I am curious: what Cmax value has been reported for CC(C)(Cc1cccc([C@@]2(C)C(=O)Nc3nc(-c4nn(CCC(F)(F)C(F)(F)F)c5cc(Cl)cnc45)nc(N)c32)c1)C(=O)O ? 2820

// lookup Cmax for CC(C)(Cc1csc([C@]2(C)C(=O)Nc3nc(-n4nc(CCC(F)(F)C(F)(F)F)c5cc(Cl)ccc54)nc(N)c32)n1)C(=O)O (single isomer, unassigned) 2350
